Source: patent US11020381B2

- assayed system: UniProt Q15858
- Sequence (Q15858 whole entry): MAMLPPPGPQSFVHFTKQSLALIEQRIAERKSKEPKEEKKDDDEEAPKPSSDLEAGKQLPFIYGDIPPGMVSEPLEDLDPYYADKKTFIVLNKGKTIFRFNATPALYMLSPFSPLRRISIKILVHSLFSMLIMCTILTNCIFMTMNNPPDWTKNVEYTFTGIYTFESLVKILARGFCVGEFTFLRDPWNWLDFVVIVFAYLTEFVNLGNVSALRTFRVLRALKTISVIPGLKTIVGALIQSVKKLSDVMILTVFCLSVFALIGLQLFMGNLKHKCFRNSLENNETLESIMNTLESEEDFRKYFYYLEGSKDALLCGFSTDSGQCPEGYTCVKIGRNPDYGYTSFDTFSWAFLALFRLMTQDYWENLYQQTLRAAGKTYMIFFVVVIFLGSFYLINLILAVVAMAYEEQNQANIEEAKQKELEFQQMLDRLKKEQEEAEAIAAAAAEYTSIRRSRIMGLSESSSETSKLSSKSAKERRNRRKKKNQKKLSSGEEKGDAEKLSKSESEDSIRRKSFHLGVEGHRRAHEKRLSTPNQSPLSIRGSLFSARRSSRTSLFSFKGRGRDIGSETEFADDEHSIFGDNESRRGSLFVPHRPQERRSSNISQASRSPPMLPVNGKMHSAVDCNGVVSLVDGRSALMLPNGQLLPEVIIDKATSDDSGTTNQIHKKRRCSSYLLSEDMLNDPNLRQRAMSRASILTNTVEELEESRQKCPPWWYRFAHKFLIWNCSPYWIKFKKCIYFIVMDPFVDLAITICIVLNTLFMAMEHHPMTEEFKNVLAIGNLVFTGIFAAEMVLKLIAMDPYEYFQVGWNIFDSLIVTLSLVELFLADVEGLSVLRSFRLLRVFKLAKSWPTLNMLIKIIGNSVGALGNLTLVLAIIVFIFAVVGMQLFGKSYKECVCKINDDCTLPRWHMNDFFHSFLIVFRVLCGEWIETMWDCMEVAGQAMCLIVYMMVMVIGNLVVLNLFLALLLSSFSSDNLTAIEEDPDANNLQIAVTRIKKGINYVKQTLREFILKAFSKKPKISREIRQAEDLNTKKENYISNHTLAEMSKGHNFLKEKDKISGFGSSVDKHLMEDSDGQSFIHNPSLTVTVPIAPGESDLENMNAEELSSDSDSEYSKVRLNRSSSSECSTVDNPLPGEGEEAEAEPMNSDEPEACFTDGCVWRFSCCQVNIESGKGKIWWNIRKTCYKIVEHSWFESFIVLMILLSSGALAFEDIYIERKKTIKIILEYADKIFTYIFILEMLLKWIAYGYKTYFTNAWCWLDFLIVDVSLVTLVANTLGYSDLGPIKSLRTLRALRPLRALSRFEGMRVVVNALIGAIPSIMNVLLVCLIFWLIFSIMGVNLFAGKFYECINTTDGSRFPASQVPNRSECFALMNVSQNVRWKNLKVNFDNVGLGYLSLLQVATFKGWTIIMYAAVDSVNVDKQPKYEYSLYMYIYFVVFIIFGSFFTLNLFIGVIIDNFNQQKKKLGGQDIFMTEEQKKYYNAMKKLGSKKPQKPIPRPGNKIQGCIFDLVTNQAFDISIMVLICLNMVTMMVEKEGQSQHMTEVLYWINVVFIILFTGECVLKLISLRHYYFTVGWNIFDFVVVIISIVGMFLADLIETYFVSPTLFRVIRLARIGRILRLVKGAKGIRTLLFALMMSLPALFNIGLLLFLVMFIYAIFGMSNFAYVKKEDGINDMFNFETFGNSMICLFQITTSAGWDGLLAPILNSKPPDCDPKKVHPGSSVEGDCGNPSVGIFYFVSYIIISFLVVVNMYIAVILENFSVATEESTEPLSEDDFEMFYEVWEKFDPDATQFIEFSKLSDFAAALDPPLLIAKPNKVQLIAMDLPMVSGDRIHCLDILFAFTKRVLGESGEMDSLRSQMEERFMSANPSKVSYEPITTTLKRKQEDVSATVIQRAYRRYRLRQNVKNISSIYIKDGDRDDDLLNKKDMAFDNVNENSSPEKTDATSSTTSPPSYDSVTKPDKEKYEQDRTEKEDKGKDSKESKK
- assay name: EFS-FRET assay
- Format: cell-based
- experimental context: CHO cells expressing human Nav1.7 channels; read-out: IC50 against Nav1.7
readout type: IC50 (nM)

Some solved cases for reference:
> print(dat)
                                   molecule  reported.value
1  CS(=O)(=O)NC(=O)c1cc(F)c(COc2cccc(-c3ccc(OCC4CC4)nc3)c2)cc1F [Example 24]              50
2  CS(=O)(=O)NC(=O)c1ccc(COc2cccc(-c3cc(CC4CC4)on3)c2)c(F)c1 [Example 84]              50

P. CS(=O)(=O)NC(=O)c1ccc(COc2cccc(-c3ccc(OCC4CC4)nc3)c2)c(F)c1 [Example 14]
Q. CS(=O)(=O)NC(=O)c1ccc(COc2cccc(-c3cccnc3)c2)c(F)c1 [reference compound (B), reference compound]
R. CS(=O)(=O)NC(=O)c1cc(F)c(COc2cccc(-c3cccnc3)c2)cc1F [reference compound (C), reference compound]
### Prompt // ascending sort on recorded IC50 Lab note: record answer as labels in requested order.
### Response P, R, Q
(P: 50 nM, R: 600 nM, Q: 1300 nM)

* * *

- assayed system: Nav1.5 (Homo sapiens (Human))
- Sequence (Q14524 whole entry): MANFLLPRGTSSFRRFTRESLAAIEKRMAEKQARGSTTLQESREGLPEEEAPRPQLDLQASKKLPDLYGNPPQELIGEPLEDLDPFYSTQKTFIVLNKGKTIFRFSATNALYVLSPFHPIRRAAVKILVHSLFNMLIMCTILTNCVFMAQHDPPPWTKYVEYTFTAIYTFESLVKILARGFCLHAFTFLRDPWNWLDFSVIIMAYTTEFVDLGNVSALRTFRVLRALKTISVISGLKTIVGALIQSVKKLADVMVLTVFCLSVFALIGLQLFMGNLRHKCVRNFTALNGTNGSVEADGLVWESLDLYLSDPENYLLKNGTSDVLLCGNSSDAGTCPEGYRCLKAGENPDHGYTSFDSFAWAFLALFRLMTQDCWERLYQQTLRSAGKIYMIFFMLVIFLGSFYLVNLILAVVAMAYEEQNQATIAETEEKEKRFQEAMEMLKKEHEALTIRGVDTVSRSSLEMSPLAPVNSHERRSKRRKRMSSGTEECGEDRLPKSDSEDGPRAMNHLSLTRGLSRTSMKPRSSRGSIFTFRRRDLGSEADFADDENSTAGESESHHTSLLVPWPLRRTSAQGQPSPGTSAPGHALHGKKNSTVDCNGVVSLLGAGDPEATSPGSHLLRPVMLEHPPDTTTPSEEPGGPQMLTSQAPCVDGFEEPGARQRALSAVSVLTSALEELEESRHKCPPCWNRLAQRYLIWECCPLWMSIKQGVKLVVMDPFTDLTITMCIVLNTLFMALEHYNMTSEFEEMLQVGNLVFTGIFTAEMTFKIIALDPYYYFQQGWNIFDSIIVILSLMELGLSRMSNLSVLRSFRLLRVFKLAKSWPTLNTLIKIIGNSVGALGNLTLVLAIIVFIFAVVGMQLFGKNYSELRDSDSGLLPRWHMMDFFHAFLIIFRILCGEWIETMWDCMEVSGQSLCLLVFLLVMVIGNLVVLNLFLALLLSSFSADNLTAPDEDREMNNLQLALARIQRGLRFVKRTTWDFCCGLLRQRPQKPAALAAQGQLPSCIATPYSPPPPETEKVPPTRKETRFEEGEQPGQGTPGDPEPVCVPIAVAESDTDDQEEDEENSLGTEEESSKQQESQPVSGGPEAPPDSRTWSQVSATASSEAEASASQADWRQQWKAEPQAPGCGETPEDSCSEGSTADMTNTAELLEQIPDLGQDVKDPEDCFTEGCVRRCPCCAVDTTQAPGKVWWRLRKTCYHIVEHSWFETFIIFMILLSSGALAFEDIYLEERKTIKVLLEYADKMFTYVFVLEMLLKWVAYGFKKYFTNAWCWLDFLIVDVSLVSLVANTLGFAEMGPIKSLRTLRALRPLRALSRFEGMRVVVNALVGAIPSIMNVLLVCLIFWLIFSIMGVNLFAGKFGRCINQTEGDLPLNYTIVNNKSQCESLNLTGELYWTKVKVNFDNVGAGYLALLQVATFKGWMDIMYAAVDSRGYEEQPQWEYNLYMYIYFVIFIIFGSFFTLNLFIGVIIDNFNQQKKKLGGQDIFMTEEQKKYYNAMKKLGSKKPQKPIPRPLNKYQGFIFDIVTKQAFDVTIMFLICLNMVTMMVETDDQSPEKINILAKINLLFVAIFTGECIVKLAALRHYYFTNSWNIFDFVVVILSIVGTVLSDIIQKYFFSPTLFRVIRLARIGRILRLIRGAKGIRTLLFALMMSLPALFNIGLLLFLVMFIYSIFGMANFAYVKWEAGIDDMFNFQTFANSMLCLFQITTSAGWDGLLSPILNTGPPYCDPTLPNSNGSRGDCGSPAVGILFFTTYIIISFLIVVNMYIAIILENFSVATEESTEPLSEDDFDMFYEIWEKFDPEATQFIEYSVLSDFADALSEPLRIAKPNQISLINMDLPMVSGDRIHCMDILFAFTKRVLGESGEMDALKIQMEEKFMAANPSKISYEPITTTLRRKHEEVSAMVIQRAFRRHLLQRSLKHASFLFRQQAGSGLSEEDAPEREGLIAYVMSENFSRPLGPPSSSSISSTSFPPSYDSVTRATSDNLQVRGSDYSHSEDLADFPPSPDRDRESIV
- assay name: FRET assay
- Type: cell-based
- experimental context: HEK293 cells expressing human Nav1.5 channels; read-out: activity (IC50) against Nav1.5
- Procedure: This screen is used to determine the effects of compounds on human Nav1.5 channels, utilizing the cell imaging technology by Hamamatsu Photonics's Functional Drug Screening System (FDSS). The changes of membrane potential are monitored with fluorescent membrane potential dye pair, DiSBAC2(3) and CC2-DMPE, using FRET technology. […] The data is analyzed and reported as normalized ratios of intensities measured in the 465 nm and 575 nm channels. […]
readout type: IC50

### Prompt Report IC50 under test system Nav1.5 (Homo sapiens (Human)) for CS(=O)(=O)NC(=O)c1ccc(COc2cccc(-c3ccc(OCC4CC4)nc3)c2)cc1 .
### Response > 30 µM
